Values from patent US20150329642A1

Exercise: for every item that follows, state its recorded residual binding, % of no competitor.
TGT: T1, cMetECDHis (human, UniProt P08581 25-932, limits assumed, biotinylated in the cross-block ELISA of Example 17)
T1 construct: Expressed in HEK-293F cells; also called soluble cMetECDHis; biotinylated cMetECDHis
PROCEDURE_SUMMARY: cross-block ELISA; competitor 068
Write the answer as a number in %, unit excluded.

Field request: residual binding, % of no competitor | item: IgG1-1016-058 (antibody, V domains shown, also called IgG1-058; TH1016-058) VH: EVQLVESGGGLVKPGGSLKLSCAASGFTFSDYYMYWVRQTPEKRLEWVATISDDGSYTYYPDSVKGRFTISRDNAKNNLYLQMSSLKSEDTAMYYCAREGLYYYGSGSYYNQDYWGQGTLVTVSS VL: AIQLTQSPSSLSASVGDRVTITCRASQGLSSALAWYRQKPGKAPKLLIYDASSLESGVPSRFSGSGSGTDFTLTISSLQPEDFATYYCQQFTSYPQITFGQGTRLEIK 119

Field request: residual binding, % of no competitor | item: IgG1-024 (antibody, V domains shown, also called TH1016-024; PC1016-024) VH: EVQLLESGGGLVQPGGSLRLSCVASGFTFSSYAMSWVRQAPGKGLEWVSAISGSSGGSTYYVDSVKGRFTISRANSKNTLYLQMNSLRAEDTAVYYCAKDLDRGWMGYFGYWGQGTLVTVSS VL: DIQMTQSPSSVSASVGDRVTITCRASQGISSWLAWYQHKPGKAPKLLIYAASSLQSGVPSRFSGSGSGTDFTLTISSLQPEDFATYYCQQANSFPTFGQGTRLEIK 12

Field request: residual binding, % of no competitor | item: anti-c-Met HuMab 098 (IgG1) (antibody, V domains shown, also called TH1016-098; PC1016-098) VH: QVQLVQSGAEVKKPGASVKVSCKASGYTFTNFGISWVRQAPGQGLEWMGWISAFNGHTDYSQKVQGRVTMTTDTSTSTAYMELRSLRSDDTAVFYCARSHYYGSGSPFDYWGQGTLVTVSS VL: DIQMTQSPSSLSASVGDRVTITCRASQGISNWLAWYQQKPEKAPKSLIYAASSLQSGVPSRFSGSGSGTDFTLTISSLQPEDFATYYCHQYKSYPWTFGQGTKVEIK 18
